Reported IC50 by item:
test.system: cGMP-inhibited 3',5'-cyclic phosphodiesterase 3B (Homo sapiens, UniProt Q13370)
Sequence (Q13370 whole entry): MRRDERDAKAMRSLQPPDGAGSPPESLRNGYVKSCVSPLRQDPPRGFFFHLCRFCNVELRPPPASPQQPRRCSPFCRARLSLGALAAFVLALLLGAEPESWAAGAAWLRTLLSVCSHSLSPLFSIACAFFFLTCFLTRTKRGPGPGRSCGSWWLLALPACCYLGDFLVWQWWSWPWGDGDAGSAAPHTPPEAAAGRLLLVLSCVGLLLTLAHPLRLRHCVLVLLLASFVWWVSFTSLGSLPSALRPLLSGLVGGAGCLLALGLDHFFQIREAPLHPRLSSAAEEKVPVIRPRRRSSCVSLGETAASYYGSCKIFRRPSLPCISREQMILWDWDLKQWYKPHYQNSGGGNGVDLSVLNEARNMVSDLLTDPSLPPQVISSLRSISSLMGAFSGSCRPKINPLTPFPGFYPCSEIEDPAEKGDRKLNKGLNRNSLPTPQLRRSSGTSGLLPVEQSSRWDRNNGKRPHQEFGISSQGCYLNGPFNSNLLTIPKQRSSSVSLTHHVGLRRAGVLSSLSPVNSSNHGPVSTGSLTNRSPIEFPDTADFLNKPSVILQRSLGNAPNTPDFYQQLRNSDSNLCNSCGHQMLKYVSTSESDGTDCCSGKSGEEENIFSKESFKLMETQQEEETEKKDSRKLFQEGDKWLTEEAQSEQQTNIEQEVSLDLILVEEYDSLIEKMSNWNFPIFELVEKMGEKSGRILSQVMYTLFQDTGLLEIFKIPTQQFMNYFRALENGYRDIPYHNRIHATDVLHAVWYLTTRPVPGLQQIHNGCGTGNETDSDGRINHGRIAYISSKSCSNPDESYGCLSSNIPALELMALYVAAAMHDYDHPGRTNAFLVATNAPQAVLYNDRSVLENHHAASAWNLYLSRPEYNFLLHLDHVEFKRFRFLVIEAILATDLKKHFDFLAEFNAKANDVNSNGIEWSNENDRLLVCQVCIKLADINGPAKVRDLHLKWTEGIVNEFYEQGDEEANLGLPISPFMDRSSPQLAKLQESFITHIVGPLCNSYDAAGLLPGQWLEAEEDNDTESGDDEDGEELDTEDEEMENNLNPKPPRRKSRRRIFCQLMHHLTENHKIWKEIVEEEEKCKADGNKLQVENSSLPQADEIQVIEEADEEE
assay.summary: Inhibition of human recombinant PDE3B-mediated hydrolysis of cAMP after 30 mins by fluorescence polarization assay

CCN1CC(=O)N2[C@H](c3ccc(Cl)cc3Cl)c3[nH]c4ccccc4c3C[C@@H]2C1=O > 50 µM
CCN1C(=O)[C@H]2Cc3c([nH]c4ccccc34)[C@@H](c3ccc(Cl)cc3Cl)N2C1=O > 50 µM
CN1CC(=O)N2[C@H](c3ccc4c(c3)OCO4)c3[nH]c4ccccc4c3C[C@@H]2C1=O > 50 µM

# ---- query molecule ----
query: Form field: reported IC50 of CCN1C(=O)[C@@H]2Cc3c([nH]c4ccccc34)[C@@H](c3ccc(Cl)cc3Cl)N2C1=O
result: > 50 µM
